Sourced from ChEMBL document CHEMBL1140177

Assay: Clearance in rhesus monkey at 10 mg/kg, po and 1 mg/kg, iv
Format: ADME, organism-based, Macaca mulatta
Conditions: in vivo
recorded.metric: clearance (mL/min/kg)
Answers are plain numbers, in mL/min/kg.

## Task Record request: clearance value, item "N#Cc1cc(Cl)cc(Oc2cc(OCc3n[nH]c4ncccc34)ccc2Cl)c1"
## Result 19

----------
Assay: AUC in Beagle dog at 10 mg/kg, po
Type: ADME, organism-based, Canis lupus familiaris
Set-up: dose 10 mg/kg, route oral
Conditions: plasma
recorded.metric: AUC (µM·h)
One number for each entry, in µM·h.

## Task Record request: AUC value, item "N#Cc1cc(Cl)cc(Oc2cc(OCc3n[nH]c4nc(N)ccc34)ccc2Cl)c1"
## Result 31.3

----------
Test: AUC in Sprague-Dawley rat at 10 mg/kg, po
Format: ADME, organism-based
Parameters: dose 10 mg/kg, route oral
Settings: plasma
recorded.metric: AUC

>>> print(df.to_string())
                               given_smiles  measured_result
0  N#Cc1cc(Cl)cc(Oc2cc(OCc3n[nH]c4ncccc34)ccc2Cl)c1         9.5 µM·h

Next up:
## Task Record request: AUC value, item "N#Cc1cc(Cl)cc(Oc2cc(OCc3n[nH]c4nc(N)ccc34)ccc2Cl)c1"
## Result 22.7 µM·h

----------
Provide the recorded bioavailability for the entries that follow.
Assay: Oral bioavailability in rhesus monkey at 10 mg/kg
Assay type: ADME, organism-based, Macaca mulatta
Conditions: in vivo
One number for each entry, in %.

>>> print(df.to_string())
                               given_smiles  measured_result
0  N#Cc1cc(Cl)cc(Oc2cc(OCc3n[nH]c4nc(N)ccc34)ccc2Cl)c1                1

Next up:
## Task Record request: bioavailability value, item "N#Cc1cc(Cl)cc(Oc2cc(OCc3n[nH]c4ncccc34)ccc2Cl)c1"
## Result 3

----------
Provide the recorded IC50 for the entries that follow.
Biological target: Human immunodeficiency virus type 1 reverse transcriptase (Human immunodeficiency virus 1, UniProt Q72547, K103N)
Assay: Inhibition of HIV1 RT polymerase K103N mutant by SPA
Numbers only, in nM.

>>> df
                               given_smiles  value_unit  measured_result
0  N#Cc1cc(Cl)cc(Oc2cc(OCc3n[nH]c4ncccc34)ccc2Cl)c1          nM              0.5
1  N#Cc1cc(Cl)cc(Oc2cc(OCc3n[nH]c4cccnc34)ccc2Cl)c1          nM               40
2  N#Cc1cc(Cl)cc(Oc2cc(OCc3n[nH]c4cnccc34)ccc2Cl)c1          nM              1.3

## Task Record request: IC50 value, item "N#Cc1cc(Cl)cc(Oc2cc(OCc3n[nH]c4ccncc34)ccc2Cl)c1"
## Result 3.8

----------
Provide the recorded IC50 for the entries that follow.
System: Human immunodeficiency virus 1
Experiment: Antiviral activity against HIV1 with reverse transcriptase K103N/V179E mutant in presence of 40% normal human serum
Type: functional, organism-based
Give bare numbers, in nM.

In [3]: df
Out[3]:
                               given_smiles  value_unit  measured_result
0  N#Cc1cc(Cl)cc(Oc2cc(OCc3n[nH]c4ncccc34)ccc2Cl)c1          nM                6

Next up:
## Task Record request: IC50 value, item "N#Cc1cc(Cl)cc(Oc2cc(OCc3n[nH]c4nc(N)ccc34)ccc2Cl)c1"
## Result 9.6
